Give T/C for every item shown.
Tested on: L1210 leukemia ip in BDF1 mice, survival T/C
Test: NCI In Vivo Anticancer Drug Screen. Data for tumor model L1210 Leukemia (intraperitoneal) in B6D2F1 (BDF1) mice
Settings: endpoint: mean survival time; dose: 12.5 mg/kg/injection; schedule: Q01DX009 (ip); vehicle: saline with Tween-80; higher = longer survival
Toxic doses and inconclusive results are not listed.

Request - read-out T/C | tested on L1210 leukemia ip in BDF1 mice, survival T/C | compound CCCOCCC(c1ccccc1)(c1ccccc1)c1ccccc1
98 % of control

Notebook entry, L1210 leukemia ip in BDF1 mice, survival T/C assay: T/C of Cc1ccc(N2CCN(CCCN3CCN(c4ccccc4Cl)CC3)CC2)cc1 = ?
89 % of control

T/C of CC(=O)NC1C(OC(C)=O)OC(COC(c2ccccc2)(c2ccccc2)c2ccccc2)C(O)C1OC(C)=O (configuration not stated) on L1210 leukemia ip in BDF1 mice, survival T/C?
93 % of control

Record CC(=N\N)/C(C)=N/N : what is its T/C with L1210 leukemia ip in BDF1 mice, survival T/C?
100 % of control

Hi! What's the reported T/C for COc1ccc2nc(N)sc2c1 on L1210 leukemia ip in BDF1 mice, survival T/C?
96 % of control

What is its T/C for L1210 leukemia ip in BDF1 mice, survival T/C? Entry: S=C(Nc1ccccc1)Nc1ccc(Cl)c(Cl)c1
95 % of control

Request: T/C, test system L1210 leukemia ip in BDF1 mice, survival T/C, entry CC[n+]1ccc(Nc2ccc(NC(=O)c3ccc([N+](=O)[O-])cc3)cc2)cc1
100 % of control

src = PubChem BioAssay AID248
